# credit: paper PMC10663924

biological target: UniProt P00533; experiment: In vitro multikinase assay
Sequence (P00533 25-1210): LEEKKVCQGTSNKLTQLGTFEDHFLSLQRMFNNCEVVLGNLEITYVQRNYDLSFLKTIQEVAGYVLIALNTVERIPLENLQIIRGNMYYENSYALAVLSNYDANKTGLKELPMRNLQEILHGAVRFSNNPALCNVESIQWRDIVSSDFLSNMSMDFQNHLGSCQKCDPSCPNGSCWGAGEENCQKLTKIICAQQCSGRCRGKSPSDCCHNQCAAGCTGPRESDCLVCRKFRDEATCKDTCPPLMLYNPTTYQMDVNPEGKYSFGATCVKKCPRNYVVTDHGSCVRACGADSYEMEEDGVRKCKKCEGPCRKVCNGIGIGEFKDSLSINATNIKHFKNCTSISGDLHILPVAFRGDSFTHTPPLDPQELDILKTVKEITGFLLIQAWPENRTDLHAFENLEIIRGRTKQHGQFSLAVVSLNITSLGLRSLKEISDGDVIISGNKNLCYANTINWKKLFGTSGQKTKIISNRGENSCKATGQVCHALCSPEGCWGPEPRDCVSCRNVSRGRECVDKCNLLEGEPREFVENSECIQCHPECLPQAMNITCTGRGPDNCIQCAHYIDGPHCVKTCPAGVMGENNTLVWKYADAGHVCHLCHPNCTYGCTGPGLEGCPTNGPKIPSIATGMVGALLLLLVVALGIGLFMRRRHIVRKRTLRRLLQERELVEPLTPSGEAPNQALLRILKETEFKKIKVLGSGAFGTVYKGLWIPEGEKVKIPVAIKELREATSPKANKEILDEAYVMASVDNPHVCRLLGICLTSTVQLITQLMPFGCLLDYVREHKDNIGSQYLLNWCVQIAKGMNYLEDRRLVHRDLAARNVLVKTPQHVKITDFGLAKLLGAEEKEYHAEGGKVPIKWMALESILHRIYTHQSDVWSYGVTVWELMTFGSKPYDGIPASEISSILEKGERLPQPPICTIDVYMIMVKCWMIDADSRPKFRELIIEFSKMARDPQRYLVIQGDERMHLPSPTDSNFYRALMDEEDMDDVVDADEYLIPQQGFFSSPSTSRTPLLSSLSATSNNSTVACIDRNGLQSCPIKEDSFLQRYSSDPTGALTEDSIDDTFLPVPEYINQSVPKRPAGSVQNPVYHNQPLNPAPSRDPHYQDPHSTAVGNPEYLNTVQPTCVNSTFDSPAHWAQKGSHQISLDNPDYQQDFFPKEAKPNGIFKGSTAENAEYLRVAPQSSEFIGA
observable: IC50

CC(=NNC(=O)c1cccc(C)c1)c1ccc(NC(=O)Cn2c(=O)c3c(ncn3C)n(C)c2=O)cc1 [T-1-MBHEPA]: 355 nM

----------
target: UniProt:P35968
Sequence (P35968 20-1356): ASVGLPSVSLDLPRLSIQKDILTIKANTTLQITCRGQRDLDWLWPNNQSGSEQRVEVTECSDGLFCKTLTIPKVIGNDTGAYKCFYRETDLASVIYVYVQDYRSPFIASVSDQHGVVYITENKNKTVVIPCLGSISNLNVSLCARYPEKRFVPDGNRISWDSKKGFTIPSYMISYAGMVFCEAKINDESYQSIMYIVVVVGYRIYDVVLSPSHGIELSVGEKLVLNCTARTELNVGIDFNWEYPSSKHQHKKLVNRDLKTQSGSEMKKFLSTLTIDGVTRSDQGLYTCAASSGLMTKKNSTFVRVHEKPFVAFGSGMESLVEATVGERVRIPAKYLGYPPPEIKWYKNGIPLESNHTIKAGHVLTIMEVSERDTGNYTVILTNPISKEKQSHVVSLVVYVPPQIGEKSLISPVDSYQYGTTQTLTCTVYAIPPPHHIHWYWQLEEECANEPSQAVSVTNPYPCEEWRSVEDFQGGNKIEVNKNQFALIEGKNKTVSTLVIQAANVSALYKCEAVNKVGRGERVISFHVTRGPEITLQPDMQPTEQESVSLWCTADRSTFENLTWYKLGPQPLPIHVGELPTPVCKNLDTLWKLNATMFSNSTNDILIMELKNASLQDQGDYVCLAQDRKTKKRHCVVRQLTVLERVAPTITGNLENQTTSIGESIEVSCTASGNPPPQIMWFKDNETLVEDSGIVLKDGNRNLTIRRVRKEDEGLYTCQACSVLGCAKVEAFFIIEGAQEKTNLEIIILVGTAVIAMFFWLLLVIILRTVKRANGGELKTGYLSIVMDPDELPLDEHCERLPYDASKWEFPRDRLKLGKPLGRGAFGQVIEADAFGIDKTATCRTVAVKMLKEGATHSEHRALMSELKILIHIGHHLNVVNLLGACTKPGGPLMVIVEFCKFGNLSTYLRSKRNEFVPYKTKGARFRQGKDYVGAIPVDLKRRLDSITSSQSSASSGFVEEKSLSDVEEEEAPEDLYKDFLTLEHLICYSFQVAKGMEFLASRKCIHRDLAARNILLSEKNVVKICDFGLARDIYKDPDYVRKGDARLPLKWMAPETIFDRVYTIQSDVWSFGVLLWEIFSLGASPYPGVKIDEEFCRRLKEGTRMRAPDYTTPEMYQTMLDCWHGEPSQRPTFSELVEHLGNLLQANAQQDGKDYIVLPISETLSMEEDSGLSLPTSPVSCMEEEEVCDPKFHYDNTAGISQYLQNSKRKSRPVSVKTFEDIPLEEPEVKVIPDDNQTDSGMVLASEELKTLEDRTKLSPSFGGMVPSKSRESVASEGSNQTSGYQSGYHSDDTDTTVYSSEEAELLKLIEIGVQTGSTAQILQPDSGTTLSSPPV
pIC50: −log10 of the molar value.
observable: pIC50

CC(=NNC(=O)c1cccc(C)c1)c1ccc(NC(=O)Cn2c(=O)c3c(ncn3C)n(C)c2=O)cc1: 6.92

----------
molecular target: Human PDGFRβ (Homo sapiens)
Sequence (P09619 33-1106): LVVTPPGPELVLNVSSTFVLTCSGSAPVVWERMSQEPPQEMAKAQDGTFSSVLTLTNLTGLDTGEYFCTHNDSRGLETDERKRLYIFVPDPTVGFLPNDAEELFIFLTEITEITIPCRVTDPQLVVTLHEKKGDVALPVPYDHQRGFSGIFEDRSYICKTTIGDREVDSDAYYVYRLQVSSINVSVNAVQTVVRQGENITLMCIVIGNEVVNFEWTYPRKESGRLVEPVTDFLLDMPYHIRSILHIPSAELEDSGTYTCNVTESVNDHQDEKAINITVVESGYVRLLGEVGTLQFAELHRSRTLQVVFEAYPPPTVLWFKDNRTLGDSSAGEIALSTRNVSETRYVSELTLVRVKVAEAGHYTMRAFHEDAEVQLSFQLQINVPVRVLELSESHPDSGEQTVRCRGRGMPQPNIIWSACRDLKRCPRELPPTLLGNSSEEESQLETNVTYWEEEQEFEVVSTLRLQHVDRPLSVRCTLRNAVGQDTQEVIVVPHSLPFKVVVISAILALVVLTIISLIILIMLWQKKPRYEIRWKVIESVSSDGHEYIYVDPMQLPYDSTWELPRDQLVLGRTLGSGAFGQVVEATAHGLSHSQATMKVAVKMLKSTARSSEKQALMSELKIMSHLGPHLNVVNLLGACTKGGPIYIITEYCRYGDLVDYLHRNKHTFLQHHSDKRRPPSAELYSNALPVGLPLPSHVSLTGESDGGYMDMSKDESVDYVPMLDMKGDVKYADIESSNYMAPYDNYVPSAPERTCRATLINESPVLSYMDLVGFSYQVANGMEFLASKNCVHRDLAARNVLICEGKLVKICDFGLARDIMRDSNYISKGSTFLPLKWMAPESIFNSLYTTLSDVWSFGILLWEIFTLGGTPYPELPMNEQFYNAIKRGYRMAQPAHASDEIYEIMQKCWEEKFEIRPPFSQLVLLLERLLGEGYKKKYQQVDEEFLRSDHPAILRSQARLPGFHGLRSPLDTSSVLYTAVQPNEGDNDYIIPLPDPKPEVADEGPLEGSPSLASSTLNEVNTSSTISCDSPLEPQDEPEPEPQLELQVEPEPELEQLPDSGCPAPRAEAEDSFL
observable: IC50

CC(=NNC(=O)c1cccc(C)c1)c1ccc(NC(=O)Cn2c(=O)c3c(ncn3C)n(C)c2=O)cc1: 0.179 µM
